Would you mind telling me the reported MIC of each entry?
Tested on: Mycobacterium tuberculosis
ASSAY_COMMENT: Antimycobacterial activity against Mycobacterium tuberculosis H37Rv after 7 days by resazurin method
Assay type: functional
PARTICULARS: 168 h

## Input What value of MIC has been recorded for this entry: CO[C@H]1/C=C/O[C@@]2(C)Oc3c(C)c(O)c4c(c3[C@H]2O)C2=NC3(CCN(CC(C)C)CC3)NC2=C(NC(=O)/C(C)=C\C=C\[C@H](C)[C@H](O)[C@@H](C)[C@@H](O)[C@@H](C)[C@H](OC(C)=O)[C@@H]1C)C4=O
## Output < 0.05 µg/mL

## Input Recorded MIC of CO[C@H]1/C=C/O[C@@]2(C)Oc3c(C)c(O)c4c(c3C2=O)C2=NC3(CCN(CC(C)C)CC3)NC2=C(NC(=O)/C(C)=C\C=C\[C@H](C)[C@H](O)[C@@H](C)[C@@H](O)[C@@H](C)[C@H](OC(C)=O)[C@@H]1C)C4=O , please.
## Output < 0.013 µg/mL

## Input What does the data say about its MIC? Entry: CO[C@H]1/C=C/O[C@@]2(C)Oc3c(C)c(O)c4c(c3C2=O)C2=NC3(CCN(CC(C)C)CC3)N(C(C)=O)C2=C(NC(=O)/C(C)=C\C=C\[C@H](C)[C@H](O)[C@@H](C)[C@@H](O)[C@@H](C)[C@H](OC(C)=O)[C@@H]1C)C4=O
## Output < 0.013 µg/mL
